These measurements were taken from ChEMBL document CHEMBL1201862.

Molecular target: Ataxin-2 (Homo sapiens)
Test: qHTS for Inhibitors of ATXN expression.
Type: functional
The whole screen tested about 400,000 compounds, of which about 2,100 (0.53%) were called active. Inconclusive results (about 14%) are left out. How the calls were made is not given here. The full list was thinned out, with actives kept by preference.
Outcomes you can answer with include only these: 1 (yes) = active, 0 (no) = inactive

Worked examples, 3 compounds total:
1) Cc1ccc(C(=O)C2=C(O)C(=O)N(Cc3cccnc3)C2c2ccc(Cl)cc2)o1 (centres undefined) :: 0 (no)
2) Cc1cc(N2CCN(c3ccc(C(F)(F)F)cc3[N+](=O)[O-])CC2)c2ccccc2n1 :: 0 (no)
3) COc1cccc(-c2cc(C(F)(F)F)c(C#N)c(O)n2)c1 :: 0 (no)

Task: How was CCCOc1ccc(CN(CCC#N)C(=S)NC(=O)c2ccccc2)cc1 classified in this test?
Result: 1 (yes)
